# System: MDA-MB-231
# test.details: Antiproliferative activity against human MDA-MB-231 cells after 48 hrs by CCK-8 assay
# Type: functional, cell-based
# measurement.conditions: MDA-MB-231, 48 h
Items are presented alongside their recorded IC50.
readout.label: IC50 (µg/mL)

{"smiles.notation": "Cc1ccc(-c2[nH]c3ccccc3c2C2=C(Br)C(=O)C(Br)=C(Br)C2=O)cc1", "readout.label": "IC50", "recorded.value": 21.6}
{"smiles.notation": "Cc1[nH]c2ccccc2c1C1=C(Cl)C(=O)C(c2c(-c3ccccc3)[nH]c3ccccc23)=C(Cl)C1=O", "readout.label": "IC50", "recorded.value": 4.46}
{"smiles.notation": "Cc1ccc(-c2[nH]c3ccccc3c2C2=C(Br)C(=O)C(Br)=C(c3c(C)[nH]c4ccccc34)C2=O)cc1", "readout.label": "IC50", "recorded.value": 5.89}
{"smiles.notation": "COc1cccc2c1C(=O)c1c(O)c3c(c(O)c1C2=O)C[C@@](O)(C(=O)CO)C[C@@H]3O[C@H]1C[C@H](N)[C@H](O)[C@H](C)O1", "readout.label": "IC50", "recorded.value": 0.2}
{"smiles.notation": "COc1ccc2[nH]c(C)c(C3=C(Cl)C(=O)C(c4c(-c5ccc(C)cc5)[nH]c5ccccc45)=C(Cl)C3=O)c2c1", "readout.label": "IC50", "recorded.value": 4.15}
